test system: MBNL1 exon 5 inclusion in DM1 myotubes; test: Myotube splicing rescue assay (MBNL1 exon 5 inclusion); format: cell-based, human; details: 10 μM, 48-hour incubation
Classify by measured MBNL1 % splicing rescue at 10 μM: MET if it is equal to or exceeds 20%, NOT MET if it is smaller.

1. CN(C)CCCOc1ccc2nc(-c3ccc(-c4nc5ccc(OCCCN)cc5[nH]4)cc3)[nH]c2c1 [Compound 205] | NOT MET
2. CN(C)CCOc1ccc(-c2nc3cc(-c4ccc5[nH]c(-c6ccc(OCCN(C)C)cc6)nc5c4)ccc3[nH]2)cc1 [Compound 153] | MET
3. NCCN1CCN(CCNC(=O)c2ccc3nc(-c4ccc(-c5nc6ccc(C(=O)NCCN7CCCCC7)cc6[nH]5)cc4)[nH]c3c2)CC1 [Compound 185] | MET
4. CN(C)CCOc1cccc(-c2nc3cc(-c4ccc5[nH]c(-c6cccc(OCCN(C)C)c6)nc5c4)ccc3[nH]2)c1 [Compound 354] | MET
5. CN(C)CCCOc1ccc2nc(-c3cnc(-c4nc5ccc(OCCCN(C)C)cc5[nH]4)cn3)[nH]c2c1 [Compound 274] | MET
6. CN(C)CCCOc1ccc2nc(-c3ccc(-c4nc5ccc(OCCCN(C)C)cc5[nH]4)nc3)[nH]c2c1 [Compound 276] | MET
7. O=C(NCCN1CCCCC1)c1ccc2nc(-c3ccc(-c4nc5ccc(C(=O)NCCN6CCCCC6)cc5[nH]4)c(F)c3)[nH]c2c1 [Compound 174] | NOT MET
8. Nc1ccc(-c2nc3cc(-c4ccc5[nH]c(-c6ccc(NC7=NCCN7C7=NCCN7)cc6)nc5c4)ccc3[nH]2)cc1 [Compound 160] | MET
9. C[N+](C)(C)CCOC(=O)c1ccc2nc(-c3ccc(-c4nc5ccc(C(=O)OCC[N+](C)(C)C)cc5[nH]4)cc3)[nH]c2c1 [Compound 55] | NOT MET
10. CN(C)CCNC(=O)c1ccc2nc(-c3ccc(-c4nc5ccc(NC6=NCCN6)cc5[nH]4)cc3)[nH]c2c1 [Compound 149] | NOT MET
11. CCN(CC)CCNC(=O)c1ccc2nc(-c3ccc(-c4nc5ccc(C(=O)NCCN(CC)CC)cc5[nH]4)cc3)[nH]c2c1 [Compound 33] | NOT MET
12. CN(C)CCCOc1ccc2nc(-c3cc(O)c(-c4nc5ccc(OCCCN(C)C)cc5[nH]4)cc3O)[nH]c2c1 [Compound 278] | MET
13. CN(C)CCCOc1ccc2nc(-c3ccc(-c4ccc(-c5nc6ccc(OCCCN(C)C)cc6[nH]5)cc4)cc3)[nH]c2c1 [Compound 170] | MET
14. COc1cc(-c2nc3ccc(OCCCN(C)C)cc3[nH]2)c(OC)cc1-c1nc2ccc(OCCCN(C)C)cc2[nH]1 [Compound 290] | MET
